- measurement_notes: Antioxidant activity assessed as reduction of ferric ion to ferrous ion by FRAP assay
- Type: functional
# label = class 1 if IC50 < 30 µg/mL else class 0

[[record]]
molecule = "O=c1[nH]c2c(c(=O)[nH]1)C(c1ccccc1Cl)Nc1cc3c(cc1-2)NC(c1ccccc1Cl)c1c-3[nH]c(=O)[nH]c1=O (stereo unspecified)"
discrete_label = "class 1"

[[record]]
molecule = "O=c1[nH]c2c(c(=O)[nH]1)C(c1ccc(Cl)cc1)Nc1nc3c(cc1-2)-c1[nH]c(=O)[nH]c(=O)c1C(c1ccc(Cl)cc1)N3 (stereo unspecified)"
discrete_label = "class 1"

[[record]]
molecule = "O=c1[nH]c2c(c(=O)[nH]1)C(c1ccccc1[N+](=O)[O-])Nc1nc3c(cc1-2)-c1[nH]c(=O)[nH]c(=O)c1C(c1ccccc1[N+](=O)[O-])N3 (stereo unspecified)"
discrete_label = "class 0"

[[record]]
molecule = "O=c1[nH]c(=S)[nH]c2c1C(c1ccccc1Cl)Nc1nc3c(cc1-2)-c1[nH]c(=S)[nH]c(=O)c1C(c1ccccc1Cl)N3 (stereo unspecified)"
discrete_label = "class 1"

[[record]]
molecule = "O=c1[nH]c2c(c(=O)[nH]1)C(c1ccc([N+](=O)[O-])cc1)Nc1nc3c(cc1-2)-c1[nH]c(=O)[nH]c(=O)c1C(c1ccc([N+](=O)[O-])cc1)N3 (stereo unspecified)"
discrete_label = "class 1"

[[record]]
molecule = "O=c1[nH]c(=S)[nH]c2c1C(c1cccc([N+](=O)[O-])c1)Nc1cc3c(cc1-2)NC(c1cccc([N+](=O)[O-])c1)c1c-3[nH]c(=S)[nH]c1=O (stereo unspecified)"
discrete_label = "class 0"

